Recorded values, source patent US10227357B2.

# Target System: c-kit mutant D816V (Homo sapiens, UniProt P10721, D816V/DEL694-753)
# Construct: residues 551-934, kinase insertion domain residues 694-753 deleted; 6x-histidine (N); made in house; host or cells: E. coli Arctic Express (DE3) RIL (Stratagene)
# Sequence (P10721 with tags, fused parts or gaps DEL694-753/D816V): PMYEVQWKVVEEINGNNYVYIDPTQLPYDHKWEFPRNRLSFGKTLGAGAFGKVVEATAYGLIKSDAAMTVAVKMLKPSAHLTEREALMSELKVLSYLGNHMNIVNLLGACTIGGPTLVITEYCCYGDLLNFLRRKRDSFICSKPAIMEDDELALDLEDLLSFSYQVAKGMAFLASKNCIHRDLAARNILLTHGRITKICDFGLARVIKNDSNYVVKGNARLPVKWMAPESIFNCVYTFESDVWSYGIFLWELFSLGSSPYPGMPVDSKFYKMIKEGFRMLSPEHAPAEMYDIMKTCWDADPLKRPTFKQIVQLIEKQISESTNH
# Assay: c-Kit mutant D816V biochemical assay, AlphaScreen
# Measurement Conditions: c-kit D816V biochemical inhibitory activity; read-out: Biochemical activity (IC50 μM) Kit D816V
Measured Attribute: IC50

Here are 2 compounds together with their reported answers.
{"Smiles": "Cc1csc(S(=O)(=O)NC2CCN(c3ncnc4[nH]c(-c5cnn(C)c5)cc34)CC2)c1", "Measured Attribute": "IC50", "Reported Measurement": "0.0001 to 1 µM"}
{"Smiles": "Cc1cc2c(-c3ccc(S(=O)(=O)NC4CC4)cc3)ncnc2[nH]1", "Measured Attribute": "IC50", "Reported Measurement": "10 to 200 µM"}

Q) If you can, please state the reported IC50 value of "C[C@H](NC(=O)N1CCN(c2ncnc3cc(Br)sc23)CC1)c1ccc(F)cc1" .
A) 1 to 10 µM

Q) Please report the recorded IC50 for "Cc1ccc(-c2cc3c(N4CCN(c5nc6ccccc6[nH]5)CC4)ncnc3[nH]2)cn1" .
A) 0.0001 to 1 µM

Q) Would you kindly share the measured IC50 for "Cc1cc2c(-c3ccc(NS(=O)(=O)c4cc5ccccc5s4)cc3)ncnc2[nH]1" ?
A) 1 to 10 µM

---

IC50 values, listed per item
# Target System: c-kit kinase (Homo sapiens)
# Construct: The c-kit (or kinase domain thereof) is an active kinase in AlphaScreen; poly-Histidine tag (in-house protein only) (cleaved yes); host or cells: E. coli BL21(DE3)RIL, co-expressed with PTP1B
# Sequence (P10721 26-976): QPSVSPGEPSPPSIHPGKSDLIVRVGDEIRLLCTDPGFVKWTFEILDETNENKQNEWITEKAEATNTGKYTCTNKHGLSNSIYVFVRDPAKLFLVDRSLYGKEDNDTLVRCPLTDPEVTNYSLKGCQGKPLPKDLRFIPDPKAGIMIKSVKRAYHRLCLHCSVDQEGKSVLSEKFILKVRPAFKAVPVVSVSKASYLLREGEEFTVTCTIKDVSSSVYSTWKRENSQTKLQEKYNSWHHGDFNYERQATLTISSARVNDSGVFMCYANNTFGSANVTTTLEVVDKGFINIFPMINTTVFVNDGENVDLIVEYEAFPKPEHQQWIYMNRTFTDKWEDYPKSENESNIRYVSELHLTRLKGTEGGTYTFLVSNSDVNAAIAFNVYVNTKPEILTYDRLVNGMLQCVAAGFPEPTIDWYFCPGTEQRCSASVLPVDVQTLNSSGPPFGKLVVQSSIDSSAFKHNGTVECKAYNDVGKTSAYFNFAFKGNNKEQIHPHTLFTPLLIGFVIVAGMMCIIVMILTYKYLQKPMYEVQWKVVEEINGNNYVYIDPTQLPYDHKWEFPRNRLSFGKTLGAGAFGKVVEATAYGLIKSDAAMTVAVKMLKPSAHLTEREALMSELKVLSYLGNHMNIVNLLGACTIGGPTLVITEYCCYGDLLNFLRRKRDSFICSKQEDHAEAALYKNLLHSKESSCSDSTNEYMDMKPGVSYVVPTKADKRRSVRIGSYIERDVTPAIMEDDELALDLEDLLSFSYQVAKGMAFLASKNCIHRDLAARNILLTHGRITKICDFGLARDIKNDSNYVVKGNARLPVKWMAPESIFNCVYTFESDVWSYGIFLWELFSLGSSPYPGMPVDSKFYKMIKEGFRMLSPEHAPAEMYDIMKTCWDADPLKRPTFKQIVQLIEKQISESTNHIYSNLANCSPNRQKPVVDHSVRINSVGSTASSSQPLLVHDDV
# Assay: c-Kit biochemical assay, AlphaScreen, 10 μM ATP
# Measurement Conditions: c-kit biochemical inhibitory activity; read-out: Biochemical activity (IC50 μM) Kit

Here are 5 molecules together with their reported answers.
{"Smiles": "COc1cc2ncnc(-c3ccc(NS(=O)(=O)C4CC4)cc3)c2cc1OC", "Target System": "c-kit kinase (Homo sapiens)", "Reported Measurement": "10 to 200 µM"}
{"Smiles": "COc1cccc(CNC(=O)N2CCN(c3ncnc4[nH]c(-c5cccnc5)cc34)CC2)n1", "Target System": "c-kit kinase (Homo sapiens)", "Reported Measurement": "10 to 200 µM"}
{"Smiles": "CC(=N)Nc1ccc(-c2ncnc3cc(C4=CCN(C(=O)N5CCOCC5)CC4)sc23)cc1", "Target System": "c-kit kinase (Homo sapiens)", "Reported Measurement": "10 to 200 µM"}
{"Smiles": "C[C@H](NC(=O)N1CCN(c2ncnc3cc(N4CCOCC4)sc23)CC1(C)C)c1cccc(Cl)c1", "Target System": "c-kit kinase (Homo sapiens)", "Reported Measurement": "1 to 10 µM"}
{"Smiles": "CCOC(=O)N1CCN(c2cc3ncnc(N4CCN(C(=O)N[C@@H](C)c5cccc(OC)c5)C(C)(C)C4)c3s2)CC1", "Target System": "c-kit kinase (Homo sapiens)", "Reported Measurement": "1 to 10 µM"}

Please examine the following record next.
Q) Which IC50 is reported for this molecule? "Cc1cc2c(-c3ccc(NS(=O)(=O)c4ccc(F)c(F)c4)cc3)ncnc2[nH]1"
A) 10 to 200 µM

---

Items are presented alongside their recorded IC50.
# Target System: c-kit mutant D816V (Homo sapiens, UniProt P10721, D816V/DEL694-753)
# Construct: residues 551-934, kinase insertion domain residues 694-753 deleted; 6x-histidine (N); made in house; host or cells: E. coli Arctic Express (DE3) RIL (Stratagene)
# Assay: c-Kit mutant D816V biochemical assay, AlphaScreen
# Measurement Conditions: c-kit D816V biochemical inhibitory activity; read-out: Biochemical activity (IC50 μM) Kit D816V

Solved entries:
{"Smiles": "COc1cc(-c2cc3c(N4CCC(NS(=O)(=O)c5ccc(C)cc5)CC4)ncnc3[nH]2)ccn1", "IC50": "0.0001 to 1 µM"}
{"Smiles": "COc1ncc(-c2cc3c(N4CCN(C(=O)NCc5ccc(F)cc5)CC4)ncnc3[nH]2)cn1", "IC50": "1 to 10 µM"}
{"Smiles": "CC(=O)Nc1cccc(-c2cc3c(N4CCN(C(=O)Nc5ccc(OC(F)(F)F)cc5)CC4)ncnc3[nH]2)c1", "IC50": "1 to 10 µM"}
{"Smiles": "C[C@H](NC(=O)N1CCN(c2ncnc3[nH]c(-c4cnn(C)c4)cc23)CC1(C)C)c1ccc(Cl)cc1", "IC50": "0.0001 to 1 µM"}
{"Smiles": "COCCOc1cc2ncnc(-c3ccc(NS(=O)(=O)C4CC4)cc3F)c2cc1OCCOC", "IC50": "0.0001 to 1 µM"}
{"Smiles": "N#Cc1ccc(-c2cc3c(N4CCN(C(=O)NCc5ccc(F)cc5)CC4)ncnc3[nH]2)cc1", "IC50": "1 to 10 µM"}
{"Smiles": "C[C@H]1CN(c2ncnc3[nH]c(-c4ccncc4)cc23)CCN1C(=O)NCc1cccc(Cl)c1", "IC50": "0.0001 to 1 µM"}
{"Smiles": "CCOc1cccc(NC(=O)N2CCN(c3ncnc4[nH]c(-c5cccnc5)cc34)CC2)c1", "IC50": "0.0001 to 1 µM"}

Q) Consider the compound "O=C(Nc1ccc(C(F)(F)F)cc1)NC1CCN(c2ncnc3[nH]ccc23)CC1" and give its measured IC50.
A) 10 to 200 µM

Q) Any idea what IC50 was measured for "C[C@H](NC(=O)N1CCN(c2ncnc3[nH]c(-c4cnn(C)c4)cc23)CC1)c1ccc(Cl)cc1" ?
A) 0.0001 to 1 µM

Q) What value of IC50 has been reported for the following compound? "C[C@H](NC(=O)N1CCN(c2ncnc3ccsc23)CC1(C)C)c1cccc(Cl)c1"
A) 1 to 10 µM

Q) Please give the measured IC50 for this compound: "COc1cc2c(-c3ccc(NS(=O)(=O)c4ccc(Cl)cc4)cc3F)ncnc2cc1OCCCN1CCCCC1"
A) 0.0001 to 1 µM

Q) // returns reported IC50 for input "COc1ccc(CNC(=O)N2CCN(c3ncnc4[nH]c(-c5ccc(F)cc5)cc34)CC2)cn1"
A) 0.0001 to 1 µM

Q) What IC50 value was documented for this compound, "O=C(NCc1ccc(F)cc1)N1CCN(c2ncnc3[nH]ccc23)CC1" ?
A) 10 to 200 µM

---

Listed here are compounds together with their documented IC50.
# Target System: c-kit kinase (Homo sapiens)
# Construct: The c-kit (or kinase domain thereof) is an active kinase in AlphaScreen; poly-Histidine tag (in-house protein only) (cleaved yes); host or cells: E. coli BL21(DE3)RIL, co-expressed with PTP1B
# Assay: c-Kit biochemical assay, AlphaScreen, 10 μM ATP
# Measurement Conditions: c-kit biochemical inhibitory activity; read-out: Biochemical activity (IC50 μM) Kit

Past entries and their recorded results:
{"Smiles": "CN(C)c1ccc(NC(=O)NC2CCN(c3ncnc4[nH]ccc34)CC2)cc1", "IC50": "10 to 200 µM"}
{"Smiles": "O=C(NC1CCCCC1)NC1CCN(c2ncnc3[nH]ccc23)CC1", "IC50": "10 to 200 µM"}
{"Smiles": "CS(=O)(=O)Nc1cccc(-c2cc3c(N4CCN(C(=O)Nc5ccc(OC(F)(F)F)cc5)CC4)ncnc3[nH]2)c1", "IC50": "0.0001 to 1 µM"}
{"Smiles": "Cc1nn(C)cc1-c1cc2ncnc(C3CCN(C(=O)N[C@@H](C)c4ccc(F)cc4)CC3)c2s1", "IC50": "10 to 200 µM"}
{"Smiles": "Cn1cc(-c2cc3c(N4CCN(C(=O)Nc5ccc(OC(F)F)cc5)CC4)ncnc3[nH]2)cn1", "IC50": "0.0001 to 1 µM"}

Q) // returns reported IC50 for input "COc1cccc([C@H](C)NC(=O)N2CCN(c3ncnc4[nH]c(-c5ccnc(OC)c5)cc34)CC2(C)C)c1"
A) 1 to 10 µM

Q) I am curious: what IC50 value has been reported for "Cc1cc2c(-c3cccc(NS(C)(=O)=O)c3)ncnc2[nH]1" ?
A) 10 to 200 µM

Q) Look up IC50 for this compound: "O=S(=O)(Nc1ccc(-c2ncnc3[nH]c(Cl)cc23)cc1)c1ccc(OC(F)F)cc1"
A) 1 to 10 µM

---

# Target System: c-kit kinase (Homo sapiens)
# Construct: The c-kit (or kinase domain thereof) is an active kinase in AlphaScreen; poly-Histidine tag (in-house protein only) (cleaved yes); host or cells: E. coli BL21(DE3)RIL, co-expressed with PTP1B
# Assay: c-Kit biochemical assay, AlphaScreen, 10 μM ATP
# Measurement Conditions: c-kit biochemical inhibitory activity; read-out: Biochemical activity (IC50 μM) Kit
Measured Attribute: IC50

{"Smiles": "Cc1cc2c(-c3ccc(S(=O)(=O)Nc4ccc(F)cc4)cc3F)ncnc2[nH]1", "Reported Measurement": "10 to 200 µM"}
{"Smiles": "CCS(=O)(=O)Nc1ccc(-c2ncnc3[nH]c(-c4ccc(F)cc4)cc23)c(F)c1", "Reported Measurement": "0.0001 to 1 µM"}
{"Smiles": "O=C(c1cc2c(N3CCN(C(=O)NCc4ccc(F)cc4)CC3)ncnc2[nH]1)C1CC1", "Reported Measurement": "1 to 10 µM"}
{"Smiles": "O=C(Nc1ccccc1Cl)N1CCN(c2ncnc3[nH]c(-c4ccccc4)cc23)CC1", "Reported Measurement": "0.0001 to 1 µM"}
{"Smiles": "Cn1cc(-c2cc3c(N4CCC(NS(=O)(=O)c5ccc6c(c5)CCC6)CC4)ncnc3[nH]2)cn1", "Reported Measurement": "1 to 10 µM"}
{"Smiles": "CN(C)c1ccc(-c2cc3c(N4CCN(C(=O)Nc5ccc(OC(F)(F)F)cc5)CC4)ncnc3[nH]2)cn1", "Reported Measurement": "0.0001 to 1 µM"}

Q) Which IC50 value belongs to "O=C(Nc1cccc(C(F)(F)F)c1)NC1CCN(c2ncnc3[nH]ccc23)CC1" ?
A) 1 to 10 µM

Q) Can you look up the measured IC50 of "CCCNC(=O)N1CCN(c2ncnc3[nH]c(-c4ccccc4)cc23)CC1" for me?
A) 1 to 10 µM

Q) Which IC50 value is on record for "Cc1ccc(-c2cc3c(N4CCN(C(=O)NCc5ccc(F)cc5)CC4)ncnc3[nH]2)cn1" ?
A) 1 to 10 µM

Q) # IC50 lookup, item "COc1ccc(CCNC(=O)N2CCN(c3ncnc4[nH]ccc34)CC2)cc1"
A) 10 to 200 µM

Q) For the compound "COc1cc(NC(=O)N2CCN(c3ncnc4[nH]c(-c5ccccc5)cc34)CC2)cc(OC)c1" , what IC50 is on record?
A) 0.0001 to 1 µM

Q) What does the record list as IC50 for "Cc1nn(C)cc1-c1cc2c(N3CCC(NS(=O)(=O)c4ccc(Cl)cc4)CC3)ncnc2[nH]1" ?
A) 0.0001 to 1 µM

Q) Given the compound "COc1cc2c(-c3ccc(NS(C)(=O)=O)cc3F)ncnc2cc1OCCCN1CCCCC1" , what is its reported IC50?
A) 1 to 10 µM

Q) Tell me the measured IC50 of "CCCS(=O)(=O)Nc1ccc(-c2ncnc3cc(OC)c(OC)cc23)c(F)c1" , please.
A) 10 to 200 µM

Q) Which measured IC50 value corresponds to "Cn1cc(-c2cc3ncnc(C4=CC(C)(C)NC(C)(C)C4)c3s2)cn1" ?
A) 10 to 200 µM

Q) Quick one: IC50 of "COc1ccc(S(=O)(=O)N2CCN(c3ncnc4[nH]ccc34)CC2)cc1" ?
A) 1 to 10 µM

Q) Consider the compound "O=S(=O)(Nc1ccc(-c2cc3c(-c4ccc(NS(=O)(=O)C5CC5)cc4F)ncnc3[nH]2)c(F)c1)C1CC1" and give its measured IC50.
A) 1 to 10 µM

Q) // query IC50 value for entry "Cn1cc(-c2cc3c(N4CCN(C(=O)Nc5ccc(OC(F)(F)F)cc5)CC4)ncnc3[nH]2)cn1"
A) 0.0001 to 1 µM

Q) Requested field: IC50. Item: "CCCS(=O)(=O)N1CCN(c2ncnc3[nH]ccc23)CC1"
A) 10 to 200 µM

Q) Any idea what its IC50 is? The compound is "O=C(Nc1ccc(OC(F)F)cc1)N1CCN(c2ncnc3[nH]c(-c4ccc(F)cc4)cc23)CC1"
A) 0.0001 to 1 µM

Q) Any idea what IC50 was measured for "CCOc1ccc(NC(=O)N2CCN(c3ncnc4[nH]c(-c5cccnc5)cc34)CC2)cc1" ?
A) 10 to 200 µM
